// data source = paper PMC4791264

Provide the recorded LVEDP for the entries that follow.
System: SD rats
TEST_DESCRIPTION: Effect on rat hemodynamics (left ventricular pressure, heart rate)
CONDITION_SET: 0.5 mg/kg; anesthetized SD rats; 3 min after administration
Write no unit; give the number alone.

Query: Which LVEDP value is on record for COc1ccc(CCN(C)CCCC(C#N)(c2ccc(OC)c(OC)c2)C(C)C)cc1OC (stereo not drawn) ?
Result: 38.21

Query: For the compound shown here, COc1ccc([C@@H]2Sc3ccccc3N(CCN(C)C)C(=O)[C@@H]2OC(C)=O)cc1 , give the reported LVEDP.
Result: 33.26

Query: For the compound shown here, COC(=O)C1=C(C)NC(C)=C(C(=O)OC)C1c1ccccc1[N+](=O)[O-] , give the reported LVEDP.
Result: 33.64

Query: // lookup LVEDP for COc1cccc(C[N+]2(CCCC(=O)c3ccc(F)cc3)CCC(O)(c3ccc(Cl)cc3)CC2)c1 (stereo not drawn)
Result: 22.08

Query: For the compound shown here, COc1ccc(C[N+]2(CCCC(=O)c3ccc(F)cc3)CCC(O)(c3ccc(Cl)cc3)CC2)cc1 (stereo not drawn) , give the reported LVEDP.
Result: 21.02

Query: LVEDP for COc1ccccc1C[N+]1(CCCC(=O)c2ccc(F)cc2)CCC(O)(c2ccc(Cl)cc2)CC1 (stereo not drawn) ?
Result: 24.91

---

Can you tell me LVSP for the items I'm about to list?
Test system: SD rats
TEST_DESCRIPTION: Effect on rat hemodynamics (left ventricular pressure, heart rate)
CONDITION_SET: 1 mg/kg; anesthetized SD rats; 3 min after administration
Could you keep your reply to the number by itself?

Query: // returns reported LVSP for input COc1ccc(C[N+]2(CCCC(=O)c3ccc(F)cc3)CCC(O)(c3ccc(Cl)cc3)CC2)cc1 (stereo not drawn)
Result: 132.32

Query: Which LVSP value is on record for COc1ccccc1C[N+]1(CCCC(=O)c2ccc(F)cc2)CCC(O)(c2ccc(Cl)cc2)CC1 (stereo not drawn) ?
Result: 152.88

Query: Please look up its LVSP: COc1ccc(CCN(C)CCCC(C#N)(c2ccc(OC)c(OC)c2)C(C)C)cc1OC (stereo not drawn)
Result: 102.21

Query: Entry COc1ccc([C@@H]2Sc3ccccc3N(CCN(C)C)C(=O)[C@@H]2OC(C)=O)cc1 has what LVSP?
Result: 127.55

Query: Need LVSP of COC(=O)C1=C(C)NC(C)=C(C(=O)OC)C1c1ccccc1[N+](=O)[O-] , thanks.
Result: 105.00

Query: Looking for the measured LVSP of COc1cccc(C[N+]2(CCCC(=O)c3ccc(F)cc3)CCC(O)(c3ccc(Cl)cc3)CC2)c1 (stereo not drawn) , can you help?
Result: 138.94

---

System: SD rats
TEST_DESCRIPTION: Effect on rat hemodynamics (left ventricular pressure, heart rate)
CONDITION_SET: 0.25 mg/kg; anesthetized SD rats; 3 min after administration
OBSERVED_PROPERTY: HR
# print the numeric value only

Query: // HR lookup, key: COC(=O)C1=C(C)NC(C)=C(C(=O)OC)C1c1ccccc1[N+](=O)[O-] [Nif, nifedipine]
Result: 372

Query: Which HR reading was recorded for the compound COc1cccc(C[N+]2(CCCC(=O)c3ccc(F)cc3)CCC(O)(c3ccc(Cl)cc3)CC2)c1 (stereo not drawn) [Compound X2] ?
Result: 365

Query: Returns the measured HR for the input compound. Input: COc1ccc(C[N+]2(CCCC(=O)c3ccc(F)cc3)CCC(O)(c3ccc(Cl)cc3)CC2)cc1 (stereo not drawn) [Compound X1]
Result: 355

Query: So what does the record say about HR for COc1ccc([C@@H]2Sc3ccccc3N(CCN(C)C)C(=O)[C@@H]2OC(C)=O)cc1 [Dil, diltiazem] ?
Result: 322

Query: Item under review: COc1ccccc1C[N+]1(CCCC(=O)c2ccc(F)cc2)CCC(O)(c2ccc(Cl)cc2)CC1 (stereo not drawn) [Compound X3] . Reported HR?
Result: 358

Query: Consider the compound COc1ccc(CCN(C)CCCC(C#N)(c2ccc(OC)c(OC)c2)C(C)C)cc1OC (stereo not drawn) [Ver, verapamil] and give its measured HR.
Result: 328
